Cited source for all entries: the supplement of paper PMC3545927

# Target entity: furin, P09958;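 further: purified furin at 1:10 enzyme:substrate in 50 mM HEPES pH 7.5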
# Sequence (P09958 whole entry): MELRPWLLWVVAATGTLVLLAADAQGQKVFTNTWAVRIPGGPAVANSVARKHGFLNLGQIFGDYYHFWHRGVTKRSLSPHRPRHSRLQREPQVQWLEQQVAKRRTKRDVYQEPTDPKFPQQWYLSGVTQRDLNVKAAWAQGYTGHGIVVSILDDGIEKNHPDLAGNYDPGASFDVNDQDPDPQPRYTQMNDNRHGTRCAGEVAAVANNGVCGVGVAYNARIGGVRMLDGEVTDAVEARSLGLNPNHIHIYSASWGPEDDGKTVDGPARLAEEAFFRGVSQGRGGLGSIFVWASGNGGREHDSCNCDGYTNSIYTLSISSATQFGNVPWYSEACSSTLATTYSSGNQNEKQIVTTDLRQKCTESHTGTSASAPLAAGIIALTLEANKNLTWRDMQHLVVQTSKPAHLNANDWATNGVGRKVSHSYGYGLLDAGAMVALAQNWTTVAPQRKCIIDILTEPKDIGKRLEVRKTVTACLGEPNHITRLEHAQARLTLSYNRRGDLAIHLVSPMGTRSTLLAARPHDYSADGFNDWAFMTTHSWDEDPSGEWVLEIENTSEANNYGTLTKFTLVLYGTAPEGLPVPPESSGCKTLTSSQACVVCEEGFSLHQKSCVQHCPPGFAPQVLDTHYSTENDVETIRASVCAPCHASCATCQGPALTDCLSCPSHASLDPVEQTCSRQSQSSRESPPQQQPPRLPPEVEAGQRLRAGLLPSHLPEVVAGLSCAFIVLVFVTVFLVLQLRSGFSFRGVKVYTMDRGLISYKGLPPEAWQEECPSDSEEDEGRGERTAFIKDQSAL
# Test description: furin cleavage Z-score vs untreated control; higher = more cleavage, active = 3.5 or more, inactive = 1 or less, 8 variable residues between constant flanks
# Experimental conditions: 15 min
This is one part of the list. No count for the full screen is at hand.
Readout name: furin cleavage Z-score
Keep it simple and answer with nothing but the number.

CANEKRQRRQAGNASASA [FS-552] :: 9.03
CALRRRQKRQAGNASASA [FS-1234] :: 12.6
CACGKRFKKNAGNASASA [FS-219] :: -0.0472

Quick one: furin cleavage Z-score of CATHMRQMRSAGNASASA [FS-304] ?
7.85
